# assay: Kinetic solubility of the compound
# Type: physicochemical
# particulars: read-out: Kinetic_solubility
propertyLabel: solubility kinetic (µM)

Consider the reported solubility kinetic for these compounds:
>  <givenSmiles>
Cc1cnn2ncn(Cc3nc([C@H]4[C@@H]5CN(c6cccc(Cl)c6)C[C@@H]54)no3)c(=O)c12

>  <measuredValue>
13

$$$$
>  <givenSmiles>
Cn1cnc2ncn(Cc3nc([C@H]4[C@@H]5C=C(c6ccccc6)C[C@@H]54)no3)c(=O)c21

>  <measuredValue>
1.4

$$$$
>  <givenSmiles>
Cn1cnc2ncn(Cc3nc([C@H]4[C@@H]5C[C@H](c6ccccc6)C[C@@H]54)no3)c(=O)c21

>  <measuredValue>
54

$$$$
>  <givenSmiles>
Cn1cnc2ncn(Cc3nc([C@H]4[C@@H]5CN(c6cc(Cl)ccn6)C[C@@H]54)no3)c(=O)c21

>  <measuredValue>
97

$$$$

1: Cn1cnc2ncn(Cc3nn(C[C@H](F)c4ccc(Cl)cc4)c(=O)o3)c(=O)c21
2: Cn1cnc2ncn(Cc3nc([C@@H]4CO[C@@H](c5ccc(Cl)cc5)C4)no3)c(=O)c21
Prompt: Endpoint returns the identifier whose solubility kinetic is numerically larger, either 1 or 2 . Answer = label.
Response: 1
(1: 120 µM, 2: 43 µM)

====

# assay: Inhibition of guinea pig TRPA1
# Design: species or system Cavia porcellus
propertyLabel: pIC50
Scale: pIC50 equals -log10([C]), with [C] in mol/L.

Prompt: Given Cn1cnc2ncn(Cc3nc([C@@H]4CO[C@@H](c5ccc(Cl)cc5)C4)no3)c(=O)c21 , state its recorded pIC50.
Response: 8.15

====

# assay: Oral bioavailability in rat at 1 mg/kg
# Type: ADME, organism-based
# particulars: in vivo
propertyLabel: bioavailability (%)

Consider the reported bioavailability for these molecules:
>  <givenSmiles>
Cn1cnc2ncn(Cc3nc([C@@H]4CO[C@@H](c5ccc(Cl)cc5)C4)no3)c(=O)c21

>  <measuredValue>
90

$$$$
>  <givenSmiles>
Cn1cnc2ncn(Cc3nc([C@H]4[C@@H]5CN(c6cc(Cl)ccn6)C[C@@H]54)no3)c(=O)c21

>  <measuredValue>
39

$$$$
>  <givenSmiles>
Cn1cnc2ncn(Cc3nc([C@H]4[C@@H]5CN(c6cccc(Cl)c6)C[C@@H]54)no3)c(=O)c21

>  <measuredValue>
20

$$$$

I: Cn1cnc2ncn(Cc3nn(C[C@H](F)c4ccc(Cl)cc4)c(=O)o3)c(=O)c21
II: Cc1cnn2ncn(Cc3nc([C@H]4[C@@H]5CN(c6cccc(Cl)c6)C[C@@H]54)no3)c(=O)c12
Prompt: Endpoint returns the identifier whose bioavailability is numerically larger, either I or II . Answer = label.
Response: I
(I: 53%, II: 32%)

====

# assaySystem: Nav1.5 (Homo sapiens, UniProt Q14524)
# Sequence (Q14524 whole entry): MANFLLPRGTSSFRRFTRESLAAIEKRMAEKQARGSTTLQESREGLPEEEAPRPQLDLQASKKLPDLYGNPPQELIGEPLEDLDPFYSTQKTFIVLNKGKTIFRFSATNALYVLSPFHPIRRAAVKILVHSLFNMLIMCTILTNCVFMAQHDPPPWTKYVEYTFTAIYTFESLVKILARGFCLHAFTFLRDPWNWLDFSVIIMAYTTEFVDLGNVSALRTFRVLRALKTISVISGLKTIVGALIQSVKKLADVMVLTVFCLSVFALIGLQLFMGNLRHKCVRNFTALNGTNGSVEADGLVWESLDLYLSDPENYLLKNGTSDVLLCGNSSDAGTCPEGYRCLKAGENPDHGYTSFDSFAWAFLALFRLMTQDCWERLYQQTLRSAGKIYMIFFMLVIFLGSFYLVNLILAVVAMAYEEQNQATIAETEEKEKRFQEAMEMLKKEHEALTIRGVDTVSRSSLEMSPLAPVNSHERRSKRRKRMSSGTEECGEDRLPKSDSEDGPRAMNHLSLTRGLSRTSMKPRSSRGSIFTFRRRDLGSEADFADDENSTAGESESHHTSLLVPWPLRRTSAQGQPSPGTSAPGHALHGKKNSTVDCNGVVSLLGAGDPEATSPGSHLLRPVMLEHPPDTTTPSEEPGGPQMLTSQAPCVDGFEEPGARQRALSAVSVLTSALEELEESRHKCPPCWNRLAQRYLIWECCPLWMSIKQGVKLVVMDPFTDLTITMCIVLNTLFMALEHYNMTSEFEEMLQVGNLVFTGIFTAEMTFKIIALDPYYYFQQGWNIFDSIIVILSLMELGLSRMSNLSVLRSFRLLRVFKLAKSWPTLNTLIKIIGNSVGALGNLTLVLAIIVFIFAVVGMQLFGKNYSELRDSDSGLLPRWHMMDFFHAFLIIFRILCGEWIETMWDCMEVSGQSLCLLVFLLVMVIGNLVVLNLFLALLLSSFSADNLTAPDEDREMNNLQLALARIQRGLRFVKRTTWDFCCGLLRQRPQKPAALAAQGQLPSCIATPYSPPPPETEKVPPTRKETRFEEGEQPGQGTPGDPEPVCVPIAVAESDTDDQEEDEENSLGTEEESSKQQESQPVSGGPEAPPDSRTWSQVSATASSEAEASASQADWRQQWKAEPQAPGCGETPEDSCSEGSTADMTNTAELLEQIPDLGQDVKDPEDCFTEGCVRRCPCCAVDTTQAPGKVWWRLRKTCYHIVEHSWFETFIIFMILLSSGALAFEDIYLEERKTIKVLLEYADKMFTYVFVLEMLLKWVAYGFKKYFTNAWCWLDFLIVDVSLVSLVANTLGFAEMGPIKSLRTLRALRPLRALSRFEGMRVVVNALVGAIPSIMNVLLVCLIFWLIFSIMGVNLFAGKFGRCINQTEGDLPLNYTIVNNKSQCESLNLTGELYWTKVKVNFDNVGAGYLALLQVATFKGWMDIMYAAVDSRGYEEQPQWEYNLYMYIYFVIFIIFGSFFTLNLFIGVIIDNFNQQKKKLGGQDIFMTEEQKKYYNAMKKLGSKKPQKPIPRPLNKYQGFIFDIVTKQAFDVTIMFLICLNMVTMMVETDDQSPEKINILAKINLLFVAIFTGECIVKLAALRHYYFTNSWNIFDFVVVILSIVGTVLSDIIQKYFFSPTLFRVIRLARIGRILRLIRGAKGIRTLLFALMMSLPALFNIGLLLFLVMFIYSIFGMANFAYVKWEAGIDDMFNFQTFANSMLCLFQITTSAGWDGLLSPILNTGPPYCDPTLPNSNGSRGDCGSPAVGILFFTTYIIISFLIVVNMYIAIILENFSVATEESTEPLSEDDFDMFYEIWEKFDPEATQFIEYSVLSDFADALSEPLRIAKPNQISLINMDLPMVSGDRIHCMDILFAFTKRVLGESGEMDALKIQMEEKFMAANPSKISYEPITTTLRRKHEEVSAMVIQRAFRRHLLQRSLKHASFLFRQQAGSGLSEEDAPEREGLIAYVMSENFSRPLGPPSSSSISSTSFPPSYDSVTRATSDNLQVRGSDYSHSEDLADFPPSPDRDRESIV
# assay: Inhibition of Nav1.5 (unknown origin) at 10 uM
propertyLabel: inhibition at 10 µM

Prompt: Given Cn1cnc2ncn(Cc3nc([C@@H]4CO[C@@H](c5ccc(Cl)cc5)C4)no3)c(=O)c21 , state its recorded inhibition at 10 µM.
Response: < 15%

====

# assay: Apparent permeability across apical to basolateral side in MDCK cells
# Type: ADME, cell-based, Canis lupus familiaris
# particulars: dog, read-out: permeability
propertyLabel: Papp A→B (×10⁻⁶ cm/s)

Consider the reported Papp A→B for these molecules:
>  <givenSmiles>
Cn1cnc2ncn(Cc3nc([C@@H]4CO[C@@H](c5ccc(Cl)cc5)C4)no3)c(=O)c21

>  <unitSymbol>
×10⁻⁶ cm/s

>  <measuredValue>
16

$$$$
>  <givenSmiles>
Cn1cnc2ncn(Cc3nc([C@H]4[C@@H]5CN(c6cc(Cl)ccn6)C[C@@H]54)no3)c(=O)c21

>  <unitSymbol>
×10⁻⁶ cm/s

>  <measuredValue>
17.3

$$$$
>  <givenSmiles>
Cn1cnc2ncn(Cc3nc([C@H]4[C@@H]5CN(c6cccc(Cl)c6)C[C@@H]54)no3)c(=O)c21

>  <unitSymbol>
×10⁻⁶ cm/s

>  <measuredValue>
15.5

$$$$

1: Cc1cnn2ncn(Cc3nc([C@H]4[C@@H]5CN(c6cccc(Cl)c6)C[C@@H]54)no3)c(=O)c12
2: Cn1cnc2ncn(Cc3nn(C[C@H](F)c4ccc(Cl)cc4)c(=O)o3)c(=O)c21
Prompt: Lab log: flag the item ( 1 or 2 ) with the smaller Papp A→B figure. Answer = label.
Response: 2
